TEST CONTEXT: in acetone, 325.15 K
REPORTED ENDPOINT: solubility (mole fraction)
API note: the answer field is a bare number with no unit suffix.

[in] Please look at this compound and report its solubility (mole fraction): O=C1C=CC(=O)N1c1cc(F)c(Br)c(F)c1
[out] 0.0225

----------
TEST CONTEXT: in ethanol, 305.72 K
REPORTED ENDPOINT: solubility (mole fraction)
API note: the answer field is a bare number with no unit suffix.

[in] Please look at this compound and report its solubility (mole fraction): O=C1C=CC(=O)N1c1cc(F)c(Br)c(F)c1
[out] 0.0006

----------
TEST CONTEXT: in pyridine, 310.05 K
REPORTED ENDPOINT: solubility (mole fraction)

[in] Please look at this molecule and report its solubility (mole fraction): O=C1C=CC(=O)N1c1cc(F)c(Br)c(F)c1
[out] 0.0214

----------
TEST CONTEXT: in acetonitrile, 291.95 K
REPORTED ENDPOINT: solubility (mole fraction)
API note: the answer field is a bare number with no unit suffix.

[in] Please look at this molecule and report its solubility (mole fraction): O=C1C=CC(=O)N1c1cc(F)c(Br)c(F)c1
[out] 0.0028

----------
TEST CONTEXT: in chloroform, 294.85 K
REPORTED ENDPOINT: solubility (mole fraction)
API note: the answer field is a bare number with no unit suffix.

[in] Please look at this compound and report its solubility (mole fraction): O=C1C=CC(=O)N1c1cc(F)c(Br)c(F)c1
[out] 0.0066

----------
TEST CONTEXT: in chloroform, 324.65 K
REPORTED ENDPOINT: solubility (mole fraction)

[in] Please look at this compound and report its solubility (mole fraction): O=C1C=CC(=O)N1c1cc(F)c(Br)c(F)c1
[out] 0.0157

----------
TEST CONTEXT: in pyridine, 318.65 K
REPORTED ENDPOINT: solubility (mole fraction)
API note: the answer field is a bare number with no unit suffix.

[in] Please look at this compound and report its solubility (mole fraction): O=C1C=CC(=O)N1c1cc(F)c(Br)c(F)c1
[out] 0.0265

----------
TEST CONTEXT: in THF, 333.65 K
REPORTED ENDPOINT: solubility (mole fraction)
API note: the answer field is a bare number with no unit suffix.

[in] Please look at this molecule and report its solubility (mole fraction): O=C1C=CC(=O)N1c1cc(F)c(Br)c(F)c1
[out] 0.047

----------
TEST CONTEXT: in acetone, 301.25 K
REPORTED ENDPOINT: solubility (mole fraction)
API note: the answer field is a bare number with no unit suffix.

[in] Please look at this compound and report its solubility (mole fraction): O=C1C=CC(=O)N1c1cc(F)c(Br)c(F)c1
[out] 0.0109

----------
TEST CONTEXT: in THF, 330.35 K
REPORTED ENDPOINT: solubility (mole fraction)
API note: the answer field is a bare number with no unit suffix.

[in] Please look at this compound and report its solubility (mole fraction): O=C1C=CC(=O)N1c1cc(F)c(Br)c(F)c1
[out] 0.0437
